# experimental-system: ACT-17 (Enterobacter asburiae)
# Sequence (P05364 21-381): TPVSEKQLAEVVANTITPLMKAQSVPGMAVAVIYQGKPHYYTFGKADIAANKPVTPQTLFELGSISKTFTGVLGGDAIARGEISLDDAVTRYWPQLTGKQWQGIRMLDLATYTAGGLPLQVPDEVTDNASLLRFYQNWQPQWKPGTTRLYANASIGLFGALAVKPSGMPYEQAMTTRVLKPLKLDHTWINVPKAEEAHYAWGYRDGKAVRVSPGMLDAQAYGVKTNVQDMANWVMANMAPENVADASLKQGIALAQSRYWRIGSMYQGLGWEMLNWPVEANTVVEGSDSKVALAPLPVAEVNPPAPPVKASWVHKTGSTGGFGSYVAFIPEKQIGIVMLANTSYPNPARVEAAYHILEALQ
# Type: biochemical
# applied-conditions: crude extract of E. coli TOP10 recombinant strain, mean of triplicate
Give measured IC50 for each item. Keep answers brief.
State the answer as a number, implicitly in µM.

// recorded IC50 for `NC(=O)[C@@H]1CC[C@@H]2CN1C(=O)N2OS(=O)(=O)O` : 0.9

// recorded IC50 for `O=C(NNC(=O)[C@@H]1CC[C@@H]2CN1C(=O)N2OS(=O)(=O)O)[C@@H]1CCCNC1` : 0.14

// recorded IC50 for `O=C(O)c1c(F)ccc2c1OB(O)[C@@H]1C[C@H]21` : 0.2

###

# experimental-system: PDC-382 (Pseudomonas aeruginosa, UniProt P24735, T96I)
# Sequence (P24735 27-397 T96I): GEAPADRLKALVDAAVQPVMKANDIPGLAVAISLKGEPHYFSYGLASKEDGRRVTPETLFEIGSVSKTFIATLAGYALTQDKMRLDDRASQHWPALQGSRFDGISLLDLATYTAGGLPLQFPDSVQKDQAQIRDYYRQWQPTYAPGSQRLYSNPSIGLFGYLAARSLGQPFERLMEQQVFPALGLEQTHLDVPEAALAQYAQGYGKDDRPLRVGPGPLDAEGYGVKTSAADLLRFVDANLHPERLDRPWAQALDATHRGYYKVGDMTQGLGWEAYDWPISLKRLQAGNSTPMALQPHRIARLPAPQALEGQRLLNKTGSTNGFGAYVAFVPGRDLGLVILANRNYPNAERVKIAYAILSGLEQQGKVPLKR
# experiment: biochemical
# Design: species or system P. aeruginosa
# applied-conditions: PDC-382; crude extract of E. coli TOP10 recombinant strain; mean of triplicate; read-out: IC50
endpoint-label: IC50 (µM)
State the answer as a number, implicitly in µM.

// recorded IC50 for `NCCN[C@H]1CC[C@H](CC(=O)N[C@H]2Cc3cccc(C(=O)O)c3OB2O)CC1` : 5

###

# experimental-system: ACT-7 (Enterobacter asburiae)
# experiment: biochemical
endpoint-label: IC50
Please don't drop the unit; write it after the number.

// recorded IC50 for NC(=O)[C@@H]1CC[C@@H]2CN1C(=O)N2OS(=O)(=O)O [Avibactam, avibactam] : 800 nM

// recorded IC50 for NCCONC(=O)[C@@H]1CC[C@@H]2CN1C(=O)N2OS(=O)(=O)O [Nacubactam, nacubactam] : 370 nM

// recorded IC50 for O=C(O)c1c(F)ccc2c1OB(O)[C@@H]1C[C@H]21 [Xeruborbactam, xeruborbactam] : 290 nM

// recorded IC50 for O=C(NC1CCNCC1)[C@@H]1CC[C@@H]2CN1C(=O)N2OS(=O)(=O)O [Relebactam, relebactam] : 710 nM

###

# experimental-system: ADC-50 (Acinetobacter baumannii)
# experiment: IC50 of β-lactamase inhibitors, crude extract, ADC-50
# Assay type: biochemical, A. baumannii
# applied-conditions: ADC-50; crude extract of E. coli TOP10 recombinant strain; mean of triplicate; listed as AVI
endpoint-label: IC50

// recorded IC50 for NC(=O)[C@@H]1CC[C@@H]2CN1C(=O)N2OS(=O)(=O)O [Avibactam, avibactam] : > 13 µM

###

# experimental-system: MOX-2 (Aeromonas caviae, UniProt Q9L3G2)
# Sequence (Q9L3G2 entry or part of it): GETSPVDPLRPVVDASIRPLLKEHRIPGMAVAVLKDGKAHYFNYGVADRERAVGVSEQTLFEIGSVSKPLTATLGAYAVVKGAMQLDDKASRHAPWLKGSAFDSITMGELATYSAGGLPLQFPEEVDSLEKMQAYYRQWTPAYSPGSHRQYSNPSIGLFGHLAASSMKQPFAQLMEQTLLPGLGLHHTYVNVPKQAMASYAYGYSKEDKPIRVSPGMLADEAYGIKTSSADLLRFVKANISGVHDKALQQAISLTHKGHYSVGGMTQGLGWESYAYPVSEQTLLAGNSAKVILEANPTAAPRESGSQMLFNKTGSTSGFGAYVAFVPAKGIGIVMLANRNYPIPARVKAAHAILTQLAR
# experiment: IC50 of β-lactamase inhibitors, crude extract, MOX-2
# Assay type: biochemical
# applied-conditions: MOX-2; crude extract of E. coli TOP10 recombinant strain; mean of triplicate; read-out: IC50
endpoint-label: IC50 (nM)
State the answer as a number, implicitly in nM.

// recorded IC50 for NCCN[C@H]1CC[C@H](CC(=O)N[C@H]2Cc3cccc(C(=O)O)c3OB2O)CC1 [Taniborbactam, taniborbactam] : 320

###

Give measured pIC50 for each item. Keep answers brief.
# experimental-system: MOX-2 (Aeromonas caviae, UniProt Q9L3G2)
# experiment: IC50 of β-lactamase inhibitors, crude extract, MOX-2
# Format: biochemical
# pIC50 is unitless: minus log10 of the molar concentration; print number only

// recorded pIC50 for `O=C(O)c1c(F)ccc2c1OB(O)[C@@H]1C[C@H]21` : 6.59

// recorded pIC50 for `O=C(O)C[C@@H]1CC[C@H](NC(=O)Cc2cccs2)B(O)O1` : 5.72

// recorded pIC50 for `NCCONC(=O)[C@@H]1CC[C@@H]2CN1C(=O)N2OS(=O)(=O)O` : 5.39

// recorded pIC50 for `O=C(NC1CCNCC1)[C@@H]1CC[C@@H]2CN1C(=O)N2OS(=O)(=O)O` : 5.62

// recorded pIC50 for `O=C(NNC(=O)[C@@H]1CC[C@@H]2CN1C(=O)N2OS(=O)(=O)O)[C@@H]1CCCNC1` : 5.57

// recorded pIC50 for `CC1=C[C@@H]2CN(C(=O)N2OS(=O)(=O)O)[C@@H]1C(N)=O` : 7.26

// recorded pIC50 for `NC(=O)[C@@H]1CC[C@@H]2CN1C(=O)N2OS(=O)(=O)O` : 5.25

###

Give measured pIC50 for each item. Keep answers brief.
# experimental-system: ACT-17 (Enterobacter asburiae)
# Type: biochemical
# applied-conditions: crude extract of E. coli TOP10 recombinant strain, mean of triplicate
# pIC50 is unitless: minus log10 of the molar concentration; print number only

// recorded pIC50 for O=C(NC1CCNCC1)[C@@H]1CC[C@@H]2CN1C(=O)N2OS(=O)(=O)O [Relebactam, relebactam] : 6.48

// recorded pIC50 for NCCONC(=O)[C@@H]1CC[C@@H]2CN1C(=O)N2OS(=O)(=O)O [Nacubactam, nacubactam] : 6.54

// recorded pIC50 for CC1=C[C@@H]2CN(C(=O)N2OS(=O)(=O)O)[C@@H]1C(N)=O [Durlobactam, durlobactam] : 8.52

// recorded pIC50 for O=C(O)C[C@@H]1CC[C@H](NC(=O)Cc2cccs2)B(O)O1 [Vaborbactam, vaborbactam] : 5.59

###

Give measured pIC50 for each item. Keep answers brief.
# experimental-system: YRC-1 (Yersinia ruckeri, UniProt Q20I87)
# Sequence (Q20I87 entry or part of it): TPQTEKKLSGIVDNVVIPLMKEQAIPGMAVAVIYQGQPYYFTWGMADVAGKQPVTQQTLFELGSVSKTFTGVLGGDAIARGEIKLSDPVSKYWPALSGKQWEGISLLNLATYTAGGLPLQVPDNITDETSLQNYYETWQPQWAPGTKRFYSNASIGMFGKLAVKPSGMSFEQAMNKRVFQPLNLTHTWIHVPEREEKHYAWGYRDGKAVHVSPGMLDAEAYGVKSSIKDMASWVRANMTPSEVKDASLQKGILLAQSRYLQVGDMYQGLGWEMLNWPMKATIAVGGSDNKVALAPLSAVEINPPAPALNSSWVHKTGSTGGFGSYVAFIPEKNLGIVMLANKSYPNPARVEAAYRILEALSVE
# experiment: IC50 of β-lactamase inhibitors, crude extract, YRC-1
# Assay type: biochemical
# pIC50 is unitless: minus log10 of the molar concentration; print number only

// recorded pIC50 for `NCCONC(=O)[C@@H]1CC[C@@H]2CN1C(=O)N2OS(=O)(=O)O` : 6.89

// recorded pIC50 for `O=C(O)c1c(F)ccc2c1OB(O)[C@@H]1C[C@H]21` : 6.02

// recorded pIC50 for `NC(=O)[C@@H]1CC[C@@H]2CN1C(=O)N2OS(=O)(=O)O` : 5.68

// recorded pIC50 for `CC1=C[C@@H]2CN(C(=O)N2OS(=O)(=O)O)[C@@H]1C(N)=O` : 8.30

// recorded pIC50 for `O=C(NC1CCNCC1)[C@@H]1CC[C@@H]2CN1C(=O)N2OS(=O)(=O)O` : 5.72

// recorded pIC50 for `O=C(O)C[C@@H]1CC[C@H](NC(=O)Cc2cccs2)B(O)O1` : 5.70

// recorded pIC50 for `O=C(NNC(=O)[C@@H]1CC[C@@H]2CN1C(=O)N2OS(=O)(=O)O)[C@@H]1CCCNC1` : 7.05

###

# experimental-system: ACT-7 (Enterobacter asburiae, UniProt B6V6L3)
# Sequence (B6V6L3 entry or part of it): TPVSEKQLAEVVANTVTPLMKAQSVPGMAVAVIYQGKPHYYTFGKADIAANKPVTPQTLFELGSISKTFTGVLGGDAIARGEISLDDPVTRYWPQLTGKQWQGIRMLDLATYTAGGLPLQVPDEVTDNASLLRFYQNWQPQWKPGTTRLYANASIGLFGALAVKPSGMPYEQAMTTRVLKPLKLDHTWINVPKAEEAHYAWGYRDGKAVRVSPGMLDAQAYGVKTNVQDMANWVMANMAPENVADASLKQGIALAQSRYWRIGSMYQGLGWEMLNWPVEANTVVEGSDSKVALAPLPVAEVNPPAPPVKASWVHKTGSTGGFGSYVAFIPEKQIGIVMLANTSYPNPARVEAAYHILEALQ
# experiment: biochemical
# applied-conditions: ACT-7; crude extract of E. coli TOP10 recombinant strain; mean of triplicate; read-out: IC50
endpoint-label: IC50 (µM)
State the answer as a number, implicitly in µM.

// recorded IC50 for `Cn1cc[n+](C[C@@]2(C)[C@H](C(=O)[O-])N3C(=O)C[C@H]3S2(=O)=O)n1` : 43

// recorded IC50 for `NCCN[C@H]1CC[C@H](CC(=O)N[C@H]2Cc3cccc(C(=O)O)c3OB2O)CC1` : 0.19

###

Give measured pIC50 for each item. Keep answers brief.
# experimental-system: PDC-1 (Pseudomonas aeruginosa)
# Construct: made in house; host or cells: E. coli TOP10, plasmid pUCp24
# Sequence (P24735 27-397): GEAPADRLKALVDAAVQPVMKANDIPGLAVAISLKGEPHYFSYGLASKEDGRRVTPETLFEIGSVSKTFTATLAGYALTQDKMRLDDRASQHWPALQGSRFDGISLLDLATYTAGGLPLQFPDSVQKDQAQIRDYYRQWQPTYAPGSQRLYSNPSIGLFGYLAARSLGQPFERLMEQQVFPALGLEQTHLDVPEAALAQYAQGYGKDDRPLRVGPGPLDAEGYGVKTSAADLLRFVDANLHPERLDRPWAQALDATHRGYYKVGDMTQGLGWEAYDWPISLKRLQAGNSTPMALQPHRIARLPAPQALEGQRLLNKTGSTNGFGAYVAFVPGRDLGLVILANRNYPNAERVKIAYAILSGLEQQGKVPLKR
# experiment: biochemical
# Parameters: species or system P. aeruginosa
# pIC50 is unitless: minus log10 of the molar concentration; print number only

// recorded pIC50 for `O=C(O)c1c(F)ccc2c1OB(O)[C@@H]1C[C@H]21` : 6.17

// recorded pIC50 for `NCCONC(=O)[C@@H]1CC[C@@H]2CN1C(=O)N2OS(=O)(=O)O` : 5.29

// recorded pIC50 for `O=C(O)C[C@@H]1CC[C@H](NC(=O)Cc2cccs2)B(O)O1` : 4.96

// recorded pIC50 for `CC1=C[C@@H]2CN(C(=O)N2OS(=O)(=O)O)[C@@H]1C(N)=O` : 8.05

###

# experimental-system: DHA-1 (Morganella morganii)
# experiment: IC50 of β-lactamase inhibitors, crude extract, DHA-1
# Assay type: biochemical
Give measured IC50 for each item. Keep answers brief.
State the answer as a number, implicitly in nM.

// recorded IC50 for `C[C@]1(Cn2ccnn2)[C@H](C(=O)O)N2C(=O)C[C@H]2S1(=O)=O` : 1300

// recorded IC50 for `O=C(NC1CCNCC1)[C@@H]1CC[C@@H]2CN1C(=O)N2OS(=O)(=O)O` : 850

// recorded IC50 for `NCCONC(=O)[C@@H]1CC[C@@H]2CN1C(=O)N2OS(=O)(=O)O` : 500

// recorded IC50 for `O=C(O)c1c(F)ccc2c1OB(O)[C@@H]1C[C@H]21` : 160

// recorded IC50 for `CC1=C[C@@H]2CN(C(=O)N2OS(=O)(=O)O)[C@@H]1C(N)=O` : 4

// recorded IC50 for `O=C(O)C[C@@H]1CC[C@H](NC(=O)Cc2cccs2)B(O)O1` : 3100

// recorded IC50 for `O=C(NNC(=O)[C@@H]1CC[C@@H]2CN1C(=O)N2OS(=O)(=O)O)[C@@H]1CCCNC1` : 60

// recorded IC50 for `NC(=O)[C@@H]1CC[C@@H]2CN1C(=O)N2OS(=O)(=O)O` : 110
